OD450 values by entry
SUBJECT_OF_TEST: T1, Cynomolgus monkey NKp46 for immunization, screening, and testing (Kactus, NKP-CM146) (cynomolgus monkey, UniProt Q95JB9 22-254)
T1 construct: Bought protein; also called monkey NKp46 antigen protein; cynomolgus monkey NKp46 antigen
ASSAY_TEXT: ELISA, coated antigen, VHH supernatant, anti-Myc HRP

[[record]]
binder = "NKp46-PA28 VHH (his and c-Myc labels) (VHH, IPTG-induced E. coli supernatant used in the screening ELISA; also called NKp46-PA28 clone supernatant; not shown: his and c-Myc labels) VHH: QVQLVESGGGLVQAGDSLRLSCVASGRTFSTYAMGWFRQAPGKEREFVAAISRNADTTYYADSVKGRFTISRDNAKNTVYLQMNSLKPEDTAVYYCAADRYSSNTQVGVARTYYDYWGQGTQVTVSS"
data_value = "> 1"


Lookup: // returns reported OD450 for input NKp46-PC11 VHH (his and c-Myc labels) (VHH, IPTG-induced E. coli supernatant used in the screening ELISA; also called NKp46-PC11 clone supernatant; not shown: his and c-Myc labels) VHH: DVQLVESGGGSVQAGGSLRLSCAPSPYSANSFSMAWFRQVPGKEREGIACIQAESGSTNVAPSVKGRFSISQDNAKNTLYLQMNNLKPEDTAMYYCAAFKRNVGGCELRPEHWRFWGQGTLVTVSS
Found: > 1
